Molecular target: β-D-glucosidase
Experiment: Glycosidase inhibition, β-D-glucosidase
Details: read-out: Ki with almond 6-D-glucosidase
READOUT: Ki (µM)

1. O[C@H]1[C@H](O)[C@@H](O)CN2CC[C@H](O)[C@H]12 [Castanospermine (20), Castanospermine, reference compound] = 9

* * *

Test system: Naringinase
Assay: Glycosidase inhibition, Naringinase
Assay type: biochemical, Penecillium decumbens
Settings: 1 mg/ml
READOUT: % inhibition Naringinase

1) OC[C@H]1[C@@H](O)[C@H](O)[C@@H]2[C@@H](O)[C@H](O)CN21 [Compound 21, 3,6,7,7a-tetraepi-casuarine] = 5%
2) OC[C@@H]1[C@@H](O)[C@H](O)[C@H]2[C@H](O)[C@@H](O)CN21 = −2%
3) O[C@H]1[C@H](O)[C@@H](O)CN2CC[C@H](O)[C@H]12 [Castanospermine (20), Castanospermine, reference compound] = 39%
4) OC[C@@H]1[C@@H](O)[C@H](O)[C@H]2[C@@H](O)[C@@H](O)CN21 [7-epi-casuarine (11), 7-epi-casuarine] = −4%
5) OC[C@H]1[C@@H](O)[C@H](O)[C@H]2[C@@H](O)[C@@H](O)CN21 [3,7-diepi-casuarine (10)] = 6%
6) OC[C@H]1[C@@H](O)[C@H](O)[C@H]2[C@@H](O)[C@H](O)CN21 [Compound 12, 3,6,7-triepi-casuarine] = 0%
7) OC[C@H]1[C@@H](O)[C@H](O)[C@@H]2[C@@H](O)[C@@H](O)CN21 [Compound 22, 3,7,7a-triepi-casuarine] = 10%
8) OC[C@H]1[C@@H](O)[C@H](O)[C@H]2[C@H](O)[C@@H](O)CN21 [3-epi-casuarine (14), 3-epi-casuarine] = 21%

* * *

Collected % inhibition gluc (Bacillus) values appear next to each entry.
System: α-D-glucosidase
Test: Glycosidase inhibition, α-D-glucosidase (Bacillus)
Type: biochemical, Bacillus stearothermophilus
Settings: 1 mg/ml
READOUT: % inhibition gluc (Bacillus) (%)

1. OC[C@H]1[C@@H](O)[C@H](O)[C@H]2[C@@H](O)[C@@H](O)CN21 [3,7-diepi-casuarine (10)] = −7
2. O[C@H]1[C@H](O)[C@@H](O)CN2CC[C@H](O)[C@H]12 [Castanospermine (20), Castanospermine, reference compound] = 6
3. OC[C@@H]1[C@@H](O)[C@H](O)[C@H]2[C@H](O)[C@@H](O)CN21 = 86
4. OC[C@@H]1[C@@H](O)[C@H](O)[C@H]2[C@@H](O)[C@@H](O)CN21 [7-epi-casuarine (11), 7-epi-casuarine] = 5
5. OC[C@H]1[C@@H](O)[C@H](O)[C@H]2[C@H](O)[C@@H](O)CN21 [3-epi-casuarine (14), 3-epi-casuarine] = 12

* * *

System: β-D-glucosidase
Experiment: Glycosidase inhibition, β-D-glucosidase
Assay type: biochemical, Almonds (Prunus sp.)
Settings: 1 mg/ml
Description: All enzymes were purchased from Sigma, as were the appropriate p-nitrophenyl substrates. Assays were carried out in microtitre plates. […] The reactions were stopped with 0.4M glycine (pH 10.4) during the exponential phase of the reaction, which was determined at the beginning of the assay using blanks with water, which were incubated for a range of time periods to measure the reaction rate using 5 mM substrate solution. […]
READOUT: % inhibition glucosidase

1. OC[C@H]1[C@@H](O)[C@H](O)[C@H]2[C@@H](O)[C@H](O)CN21 [Compound 12, 3,6,7-triepi-casuarine] = 6%
2. OC[C@H]1[C@@H](O)[C@H](O)[C@H]2[C@@H](O)[C@@H](O)CN21 [3,7-diepi-casuarine (10)] = 5%
3. O[C@H]1[C@H](O)[C@@H](O)CN2CC[C@H](O)[C@H]12 [Castanospermine (20), Castanospermine, reference compound] = 88%

* * *

System: α-D-glucosidase
Experiment: Glycosidase inhibition, α-D-glucosidase (Bacillus)
Format: biochemical, Bacillus stearothermophilus
Conditions: 1 mg/ml
READOUT: % inhibition gluc (Bacillus) (%)

1) OC[C@H]1[C@@H](O)[C@H](O)[C@@H]2[C@@H](O)[C@H](O)CN21 [Compound 21, 3,6,7,7a-tetraepi-casuarine] = −2
2) OC[C@H]1[C@@H](O)[C@H](O)[C@@H]2[C@@H](O)[C@@H](O)CN21 [Compound 22, 3,7,7a-triepi-casuarine] = 87
3) OC[C@H]1[C@@H](O)[C@H](O)[C@H]2[C@@H](O)[C@H](O)CN21 [Compound 12, 3,6,7-triepi-casuarine] = 9

* * *

Tested on: β-D-glucosidase
Test: Glycosidase inhibition, β-D-glucosidase
Format: biochemical, Almonds (Prunus sp.)
Conditions: 1 mg/ml
Collected % inhibition glucosidase values appear next to each entry.
READOUT: % inhibition glucosidase (%)

1. OC[C@H]1[C@@H](O)[C@H](O)[C@H]2[C@H](O)[C@@H](O)CN21 [3-epi-casuarine (14), 3-epi-casuarine] = 56
2. OC[C@H]1[C@@H](O)[C@H](O)[C@@H]2[C@@H](O)[C@H](O)CN21 [Compound 21, 3,6,7,7a-tetraepi-casuarine] = 44
3. OC[C@@H]1[C@@H](O)[C@H](O)[C@H]2[C@@H](O)[C@@H](O)CN21 [7-epi-casuarine (11), 7-epi-casuarine] = 30
4. OC[C@@H]1[C@@H](O)[C@H](O)[C@H]2[C@H](O)[C@@H](O)CN21 = 0

* * *

Collected % inhibition galactosidase values appear next to each entry.
Test system: β-D-galactosidase
Assay: Glycosidase inhibition, β-D-galactosidase
Format: biochemical, Bovine liver
Conditions: 1 mg/ml; second galactosidase line
READOUT: % inhibition galactosidase (%)

1) OC[C@H]1[C@@H](O)[C@H](O)[C@H]2[C@@H](O)[C@H](O)CN21 [Compound 12, 3,6,7-triepi-casuarine] = 6
2) O[C@H]1[C@H](O)[C@@H](O)CN2CC[C@H](O)[C@H]12 [Castanospermine (20), Castanospermine, reference compound] = 16
3) OC[C@H]1[C@@H](O)[C@H](O)[C@H]2[C@H](O)[C@@H](O)CN21 [3-epi-casuarine (14), 3-epi-casuarine] = 6
4) OC[C@H]1[C@@H](O)[C@H](O)[C@@H]2[C@@H](O)[C@H](O)CN21 [Compound 21, 3,6,7,7a-tetraepi-casuarine] = 3
5) OC[C@@H]1[C@@H](O)[C@H](O)[C@H]2[C@H](O)[C@@H](O)CN21 = 0
